Where these numbers come from: patent US8338472B2

# Assay System: Glucocorticoid Receptor (Homo sapiens)
# Construct: These cells express large amount of the GR and are very responsive to GC treatment; endogenous in cells; host or cells: A549 cells transiently transfected with the MMTV-LUC reporter
# Sequence (P04150 1-777): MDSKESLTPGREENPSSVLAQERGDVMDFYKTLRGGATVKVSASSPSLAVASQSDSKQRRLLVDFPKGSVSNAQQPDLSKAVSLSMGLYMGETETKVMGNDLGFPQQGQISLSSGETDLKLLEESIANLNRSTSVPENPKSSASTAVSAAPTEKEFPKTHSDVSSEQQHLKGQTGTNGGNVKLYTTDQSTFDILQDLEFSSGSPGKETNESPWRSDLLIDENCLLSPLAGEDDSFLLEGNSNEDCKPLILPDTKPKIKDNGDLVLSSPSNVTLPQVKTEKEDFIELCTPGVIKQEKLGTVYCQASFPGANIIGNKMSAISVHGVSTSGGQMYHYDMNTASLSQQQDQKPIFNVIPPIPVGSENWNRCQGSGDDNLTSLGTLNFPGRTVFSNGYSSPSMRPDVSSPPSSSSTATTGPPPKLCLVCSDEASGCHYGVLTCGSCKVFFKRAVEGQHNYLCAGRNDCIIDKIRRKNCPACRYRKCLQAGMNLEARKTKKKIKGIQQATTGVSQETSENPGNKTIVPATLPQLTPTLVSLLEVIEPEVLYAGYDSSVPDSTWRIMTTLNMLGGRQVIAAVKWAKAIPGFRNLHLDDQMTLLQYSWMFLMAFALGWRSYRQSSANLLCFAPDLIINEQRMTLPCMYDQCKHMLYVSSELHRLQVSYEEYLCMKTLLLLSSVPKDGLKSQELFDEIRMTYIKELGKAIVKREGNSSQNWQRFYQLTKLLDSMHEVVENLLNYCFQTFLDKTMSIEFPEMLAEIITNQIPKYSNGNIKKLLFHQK
# Method Notes: Trans-Activation Modulation of Glucocorticoid Receptor (GRAMMER), MMTV-LUC reporter gene in A549 cells
# Format: cell-based
# Condition Label: A549, A549 cells; Emax relative to 300 nM dexamethasone; Table 1; read-out: Transactivation A549 Cells GRAMMER Emax
Measure Name: Emax (%)

[[record]]
compound = "CCCN(CC(O)C(F)(F)F)C(=O)[C@H]1CCC2=Cc3c(cnn3-c3ccc(F)cc3)C[C@@]21C (stereo partly shown)"
assay_system = "Glucocorticoid Receptor (Homo sapiens)"
measure_name = "Emax"
readout_number = 82.4

[[record]]
compound = "CCN(CC(O)C(F)(F)F)C(=O)[C@H]1CCC2=Cc3c(cnn3-c3ccccc3)C[C@@]21C (stereo partly shown)"
assay_system = "Glucocorticoid Receptor (Homo sapiens)"
measure_name = "Emax"
readout_number = 78.2

[[record]]
compound = "C[C@]12Cc3cnn(-c4ccc(F)cc4)c3C=C1CC[C@@H]2C(=O)N(CCO)Cc1ccccc1"
assay_system = "Glucocorticoid Receptor (Homo sapiens)"
measure_name = "Emax"
readout_number = 12.5

[[record]]
compound = "CC1CC(C)CN(C(=O)[C@H]2CCC3=Cc4c(cnn4-c4ccc(F)cc4)C[C@@]32C)C1 (stereo partly shown)"
assay_system = "Glucocorticoid Receptor (Homo sapiens)"
measure_name = "Emax"
readout_number = 18.3


====

# Assay System: glucocorticoid receptor (GR) (Homo sapiens, UniProt P04150)
# Method Notes: Ligand binding assay (GR BIND), 3H-dexamethasone displacement in MDA-MB-453 cell lysate
# Condition Label: GR BIND Ki, Table 1
Criterion met if Ki is below 3 nM. Criterion not met if not; exact matches included in Criterion not met.

[[record]]
compound = "C[C@]12Cc3cnn(-c4ccc(F)cc4)c3C=C1CC[C@@H]2C(=O)N1CCCCC1Cc1ccccc1 (stereo partly shown)"
assay_system = "glucocorticoid receptor (GR) (Homo sapiens, UniProt P04150)"
label_class = "Criterion not met"

[[record]]
compound = "COc1ccccc1CCN(CC(O)C(F)(F)F)C(=O)[C@H]1CCC2=Cc3c(cnn3-c3ccc(F)cc3)C[C@@]21C (stereo partly shown)"
assay_system = "glucocorticoid receptor (GR) (Homo sapiens, UniProt P04150)"
label_class = "Criterion met"

[[record]]
compound = "CC(C)CN(CC(C)C)C(=O)[C@H]1CCC2=Cc3c(cnn3-c3ccc(F)cc3)C[C@@]21C"
assay_system = "glucocorticoid receptor (GR) (Homo sapiens, UniProt P04150)"
label_class = "Criterion met"

[[record]]
compound = "C[C@]12Cc3cnn(-c4ccc(F)cc4)c3C=C1CC[C@@H]2C(=O)N(CCO)Cc1ccccc1F"
assay_system = "glucocorticoid receptor (GR) (Homo sapiens, UniProt P04150)"
label_class = "Criterion not met"

[[record]]
compound = "CCN(CC(O)C(F)(F)F)C(=O)[C@H]1CCC2=Cc3c(cnn3-c3ccc(F)cc3)C[C@@]21C (stereo partly shown) [Compound 71]"
assay_system = "glucocorticoid receptor (GR) (Homo sapiens, UniProt P04150)"
label_class = "Criterion met"

[[record]]
compound = "CC1CC(C)CN(C(=O)[C@H]2CCC3=Cc4c(cnn4-c4ccc(F)cc4)C[C@@]32C)C1 (stereo partly shown)"
assay_system = "glucocorticoid receptor (GR) (Homo sapiens, UniProt P04150)"
label_class = "Criterion not met"

[[record]]
compound = "C[C@]12Cc3cnn(-c4ccc(F)cc4)c3C=C1CC[C@@H]2C(=O)N(CCc1ccccc1F)CC(O)CC(F)(F)F (stereo partly shown) [Compound 95]"
assay_system = "glucocorticoid receptor (GR) (Homo sapiens, UniProt P04150)"
label_class = "Criterion met"

